Test system: Hepatitis C virus NS3 helicase
Test: blockers of NS3h binding to DNA – biochemical, fluorescence polarization, NIH Clinical Collection, primary screen (AID 743270)
Settings: NS3 helicase binding to Cy5-dT15 DNA, stronger effect = higher value, concentration not given here
inhibition values for the compounds below.
REPORTED_PROPERTY: inhibition (%)

# COMPOUND, MEASUREMENT_UNIT, RESULT_VALUE
measured = [
    ("O=c1c(-c2ccccc2)c1-c1ccccc1", "%", -0.4),
    ("CCc1c(C)[nH]c2c1C(=O)C(CN1CCOCC1)CC2 (stereo not given)", "%", -1.36),
    ("CCOC(=O)OC(C)OC1=C(C(=O)Nc2ccccn2)N(C)S(=O)(=O)c2ccccc21 (stereo not given)", "%", -2.84),
    ("CCN1CCN(c2cc3c(cc2F)c(=O)c(C(=O)O)cn3C2CC2)CC1", "%", 0.66),
    ("COc1ccc(CN2CCN(C(c3ccc(F)cc3)c3ccc(F)cc3)CC2)c(OC)c1OC", "%", 1.19),
    ("CN(C)CC/C=C1/c2ccccc2COc2ccc(CC(=O)O)cc21", "%", -6.33),
    ("CC(C)NCC(O)COc1ccc(CCOCC2CC2)cc1 (stereo not given)", "%", 5.94),
    ("COC(=O)C1=C(C)NC(C)=C(C(=O)O[C@@H]2CCCN(Cc3ccccc3)C2)[C@@H]1c1cccc([N+](=O)[O-])c1", "%", 3.56),
    ("CC(C)(C)C(O)/C=C/c1ccc2c(c1)OCO2 (stereo not given)", "%", -4.59),
    ("O=C(O)/C=C/c1ccc(Cn2ccnc2)cc1", "%", -2.77),
    ("Cc1ccsc1C(=CCCN1CCC[C@@H](C(=O)O)C1)c1sccc1C", "%", -2.77),
    ("CC[N+](C)(CC)CCOC(=O)C(O)(c1ccccc1)C1CCCCC1 (stereo not given)", "%", -3.71),
    ("CC(C(=O)O)c1ccc(CC2CCCC2=O)cc1 (stereo not given)", "%", 5.94),
    ("COc1ccc2nc(S(=O)Cc3ncc(C)c(OC)c3C)[nH]c2c1 (stereo not given)", "%", -1.97),
    ("Clc1ccc2nsnc2c1NC1=NCCN1", "%", -5),
]
